- target.or.system: recombinant soluble homotrimeric HA of A/Japan/305/57 (H2N2) (Influenza A virus A/Japan/305/1957(H2N2))
- test: HA microarray, BCC supernatant
- condition: remark: other sources report otherwise
Lab note: cut-off is 1000 RLU. Strictly less in Trimeric HA Binding: RLU is Y. Exactly 1000 RLU or more is N.

- binder: "TCN-554 (5277_M05) (antibody, V domains shown) VH: QVQLVQSGADLKKPGASVKVSCKASGYTFTDYYIHWVRQAPGQGLEWMGWINPESGDTKYAQKFQGRVTMTRDTSITTAYMELGRLRSDDTAVYYCARDVSTTWSWFAPWGQGTLVTVSS VL: DIVMTQSPDSLAVSLGERATINCRSSQSIFHNSNNENYLAWYQQKPGQPPKLLIYWASTRESGVPDRFSGSGSGTDFTLTISSLQAEDVAVYFCQQYYNAPLTFGGGTKVEIK"
  assigned.label: "Y"

Q. Item TCN-543 (5081_G23) (antibody, V domains shown) VH: QVHLVQSGAEVRKPGDSVKVSCKTSGYTFSTYPVAWVRQVPGQGLEWMGWISTYNGNTNFAQNFQGRVTLTTDTTTNTAYMEVRSLKFDDTAVYYCARVEGSYRDFWNNQNRFDPWGQGTLVTVSS VL: SYVLTQPPSVSVAPGQTARISCGGSNIGGKSVHWYQQKPGQAPVLVVYDDSGRPSGIPERFSGSNSGDTATLTISRVEAGDEADYFCQVWDNFGGVFGTGTKVTVL : Trimeric HA Binding: RLU beneath 1000 RLU, strictly?
A. Y

Q. Item TCN-537 (3194_D21) (antibody, V domains shown) VH: QVQLQQWGSGLLKPSETLSLTCAVYGGSFRDDYWTWIRQPPGKGLEWIGEINHSGRTNYNPSLKSRVTISVDTSLKQFSLKVISVTAADTAVYYCARGTSHVSRYFDWLPPTNWFDPWGQGTQVTVSS VL: DIVLTQSPGTLSLSPGERATLSCRASQSVSSSYLAWYQQKPGQAPRLVMYGAATRATGIPDRFSGSGSGPDFTLTISRLEPEDFAMYYCQQYGNSPITFGQGTRLEIK : Trimeric HA Binding: RLU beneath 1000 RLU, strictly?
A. N

Q. Item TCN-527 (5086_C06) (antibody, V domains shown) VH: QVQLQESGPGLVKPSETLSLNCAVSGGSISNYYWSWIRQPPGKGLEWIGYISYNGRPKYNPSLTSRVTISVDTSKDQFSLELRSVTAADTALYYCARETRFGELLSPYDAFEIWGQGTMVTVSS VL: DIQMTQSPSSLSASVGDRVTMTCRASQNIRSYLNWYQQRPGTAPKLLIYAASTLHSGVPSRFSGGGSGTDFTLTINNLQPEDFASYYCQQSYDNPQTFGQGTKVEIK : Trimeric HA Binding: RLU beneath 1000 RLU, strictly?
A. N

Q. Item TCN-553 (5261_C18) (antibody, V domains shown) VH: QVQVVQSGTEVKKPGSSVKVSCQTSGGRFMSYAITWVRQAPGQGLEWMGGIVPVFGTANYAQKFQGRVTITTDDSTRTAYMELSSLRSEDTAVYYCGFRYGSGYGFDSWGQGTLVTVSS VL: EIVLTQSPGTLSLSPGERATLSCRASQSVSSSYLAWYQKKPGQAPRLLIYGASTRATGIPDRFTGSGSGTDFTLSISRLEPEDFAVYYCQHFGTSVFTFGGGTKVEIK : Trimeric HA Binding: RLU beneath 1000 RLU, strictly?
A. N

Q. Item TCN-529 (5297_H01) (antibody, V domains shown) VH: QITLRESGPTLVKPTQTLTLTCTFSGFSLSTNGVNVGWIRQPPGKALEWLALIYWDDDKRYSPSLKRRLTITKDTSKNQVVLTLTNMDPVDTATYYCAHRPDFYGDFEYWGPGTLVTVSS VL: QSALTQPASVSGSPGQSITISCTGSSSDIGGYNYVSWYQQHPGKAPKLMIYDVNNRPSGVSNRFSGSKSGNTASLTISGLQTDDEADYYCGSYTGSPHYVFGTGTKVTVL : Trimeric HA Binding: RLU beneath 1000 RLU, strictly?
A. Y

Q. Item TCN-523 (5248_A17) (antibody, V domains shown) VH: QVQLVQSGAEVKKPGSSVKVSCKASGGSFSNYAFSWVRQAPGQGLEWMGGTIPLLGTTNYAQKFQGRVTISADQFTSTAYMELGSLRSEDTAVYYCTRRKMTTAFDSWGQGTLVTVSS VL: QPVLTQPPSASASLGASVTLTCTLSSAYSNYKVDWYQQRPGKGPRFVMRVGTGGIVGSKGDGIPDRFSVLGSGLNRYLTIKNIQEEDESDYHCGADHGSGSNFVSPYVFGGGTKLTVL : Trimeric HA Binding: RLU beneath 1000 RLU, strictly?
A. N

Q. Item TCN-552 (5249_I23) (antibody, V domains shown) VH: QVQVVQSGAEVKKPGSSVRVSCQASGGTFMNYAIIWVRRAPGQGLEWMGGIIPVFPTPNYAQMFQGRVTISTDESRSTSFLELTNLRYEDTAVYYCARRIYHGGNSGFDFWGQGTLVTVSS VL: EIVLTQSPATLSLSPGERATLSCRASQSVGNYLAWYQQKPGQAPRLLIYDSSNRAPGIPARFSGSGSGTDFTLTISSLAPEDFAVYYCQQRSKWPPMYSFGHGTKLEIK : Trimeric HA Binding: RLU beneath 1000 RLU, strictly?
A. N

Q. Item TCN-563 (5237_B21) (antibody, V domains shown) VH: QVQLAQSGAEVKRPGSSVKVSCTASGGIFRKNAISWVRQAPGQGLEWMGGIIAVFNTANYAQKFQGRVKITADESGNTAYMELSSLRSDDTAVYYCASHPKYFYGSGSYPDFWGQGTLVTVSS VL: QSALTQPRSVSGSPGQSVTISCTGSSSDVGASNSVSWYQQHPGKAPKLVIYDVTERPSGVPHRFSGSKSGNTASLTVSGLQPEDEADYFCCAYGGKYLVVFGGGTKVTVL : Trimeric HA Binding: RLU beneath 1000 RLU, strictly?
A. N
